The reader will find reported activation values listed item by item below.
# Test system: DAF-12 nuclear receptor (Haemonchus contortus)
# protocol_notes: hcDAF-12 driven luciferase reporter activation – cell-based, luminescence, HEK293, lit1-tk-luc reporter, primary screen (AID 652067);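 further: 100% = response to 3 µM Δ7-dafachronic acid high control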
# assay_setup: HEK293 hcDAF-12 lit1-tk-luc reporter, at 6.8 µM, hits give high values, 0% DMSO, 100% Δ7-dafachronic acid
Among all 370,000 compounds or so, about 5,400 (1.5%) were called active. The full list was thinned out, with actives kept by preference.
recorded_endpoint: activation (%)

1. N#Cc1cccc(C(=O)NCC2CCN(C(=O)C(=O)c3cc4ccccc4o3)CC2)c1 :: -1.58
2. CC(c1c[nH]c2ccccc12)c1c(-c2ccccc2)n(C)c2ccccc12 (stereo unspecified) :: 3.35
3. Cn1nc(-c2ccccc2)c(CSc2cccc(Cl)c2)c1Cl :: -1.8
4. COC(=O)Cc1nnn2c1[C@H](C)[C@H](c1ccccc1Br)OCC2 :: -1.44
5. COc1ccccc1Nc1ncc(C(C)=O)c(C)n1 :: -0.49
6. CC(OC(=O)Cc1ccc(F)cc1)C(=O)N1CCc2ccccc21 (stereo unspecified) :: -0.21
7. O=c1c2ccccc2nc2n1C(CSc1ccc(Cl)cc1)CN2 (stereo unspecified) :: 2.36
8. Cc1ccc(C)c(NC(=O)C(OC(=O)c2ccc(C)s2)c2ccccc2)c1 (stereo unspecified) :: 5.84
9. Cc1cc(C)cc(NC(=O)C(OC(=O)c2ccc(O)cc2)c2ccccc2)c1 (stereo unspecified) :: 2.07
10. Cc1ccccc1NC(=O)C1CCN(c2ncccn2)CC1 :: 0.03
11. Cc1ccc(CSc2nnc(SCC(=O)NN=Cc3cc(Br)ccc3F)s2)cc1 :: -0.88
12. CN(C)CC(=O)N[C@@H]1C[C@@H]2O[C@H](CO)CC[C@@H]2O[C@@H]1CCc1ccc(C#Cc2ccccc2)cc1 :: -2.47
13. O=C(NC1CCCC1)C1CSCCS(=O)(=O)N1Cc1ccccc1 (stereo unspecified) :: -0.49
14. CN1CCN(CCNC(=O)Nc2ccccc2[N+](=O)[O-])CC1 :: -0.05
15. CC[C@@H](CCC(=O)N(c1ccccc1)c1ccccc1)C1CC1 :: -2.66
16. O=C(CCOc1ccccc1)NCc1ccccc1 :: 0.79
17. C=CCN1C(C(=O)OC)CN(Cc2cn(Cc3ccccc3)nn2)CCS1(=O)=O (stereo unspecified) :: 1.4
18. O=C(NCCOc1ccccc1)c1ccccc1F :: 6.22
19. O=[N+]([O-])c1ccc2nc(-c3ccccn3)[nH]c2c1 :: 5.76
20. O=C(/C=C/c1ccccc1[N+](=O)[O-])OCC(=O)N1CCCC1 :: 3.54
21. CC(=O)N1CCCN(C2=Nc3ccccc3Sc3ccccc32)CC1 :: -0.4
22. CN(C)C(=O)N1CCN(C(=O)[C@@H](Cc2ccccc2)NC(=O)[C@H]2O[C@@H](n3ccc(N)nc3=O)[C@H](O)[C@@H]2O)CC1 :: 1.18
23. NS(=O)(=O)c1cc(C(=O)NCCOc2ccccc2)c(Cl)cc1Cl :: -2.95
24. COc1ccc(S[C@]2(C(=O)N(C)C)CC(=O)N(c3ccc(OC)cc3)[C@@H]2c2ccc(OC)cc2)cc1 :: -2.06
25. Cc1ccccc1C(=O)OC1OC(=O)C(Cl)=C1Nc1ccccc1 (stereo unspecified) :: -2.44
26. O=C(COC(=O)c1cccc(Cl)c1)NC(=O)NCc1ccccc1 :: 0.2
27. COCCCNC(=O)C[C@H]1C[C@@]2(C(=O)OC)C(=C[C@H](C(C)(C)C)O[C@@H]2C)N(Cc2ccc3c(c2)OCO3)C1=O :: -1.12
28. O=C(COc1cccc(Cl)c1)NCc1ccccc1 :: 6.74
29. COc1ccc(C)cc1NC(=O)C(OC(=O)c1cccc(S(=O)(=O)N(C)c2ccccc2)c1)c1ccccc1 (stereo unspecified) :: 0.81
30. CCCCOCCCNC(=O)C[C@H]1C[C@@]2(C(=O)OC)C(=C[C@H](C(C)(C)C)O[C@@H]2C)N(CCc2ccc(OC)c(OC)c2)C1=O :: 1.41
31. O=C(NS(=O)(=O)c1cccs1)[C@H]1O[C@@H](n2ccc(=O)[nH]c2=O)[C@H](O)[C@@H]1O :: 1.29
32. Cc1cc(NC(=O)Nc2ccccc2[N+](=O)[O-])no1 :: -0.4
33. COc1ccccc1-c1sc2ccccc2c1C#CC1(O)CCCCC1 :: 1.87
34. O=C(CSCc1ccccc1)N1CCc2ccccc21 :: 6.78
35. CCOC(=O)Cn1c2c(n(-c3ccc(F)cc3)c1=O)C=C(c1ccccc1)[C@@H](C)C(C(=O)N(C)C1CCCCC1)=C2 :: -0.1
36. Clc1ccc2nc(CSc3ccccc3)cn2c1 :: 6.03
